Tested on: HCC15 cells
ASSAY COMMENT: Cell viability of KIF18a-sensitive cell lines, HCC15 (Cell Titre-Glo, 7 days)
Format: cell-based
TEST SETTINGS: HCC15, 7 days; read-out: HCC15 IC50
Assign pIC50 to each entry below.
Please report pIC50 as the negative decimal logarithm of the molar concentration, giving only the number.

What value of pIC50 has been recorded for this entry: O=S(=O)(CCO)Nc1ccc(-n2cc(-c3cccc(C(O)C4CCCC4)n3)nn2)c(N2CCC3(CC2)CC3)c1 (single isomer, unassigned) [Compound 90b]
7.89

What value of pIC50 has been recorded for this entry: O=S(=O)(CCO)Nc1ccc(-n2cc(-c3cccc(C(O)C4CCCC4)n3)nn2)c(N2CCC3(CC2)CC3)c1 (single isomer, unassigned) [Compound 90a]
8.13

---

Tested on: JIMT-1 cells
ASSAY COMMENT: Cell viability of KIF18a-sensitive cell lines, JIMT-1 (Cell Titre-Glo, 7 days)
Type: cell-based
TEST SETTINGS: Homo sapiens, 168 h; JIMT-1, 7 days; read-out: JIMT-1 IC50
Labelling: IC50 reported below 20 nM becomes satisfied; at or above becomes not satisfied.

Find out if reported IC50 for Cc1cc(-c2cn(-c3ccc(NS(=O)(=O)CCO)cc3N3CCC4(CC3)CC4)nn2)nc(N2CCC(F)(F)CC2)n1 [Compound 47] is less than 20 nM
satisfied

Find out if reported IC50 for CCS(=O)(=O)Nc1ccc(-n2cc(-c3cccc(N4CC(F)(F)C4)n3)nn2)c(N2CCC3(CC2)CC3)c1 [Compound 61] is less than 20 nM
satisfied

Find out if reported IC50 for O=S(=O)(Nc1ccc(-n2cc(-c3cccc(N4CCC(F)(F)CC4)n3)nn2)c(N2CCC3(CC2)CC3)c1)C1(CO)CC1 [Compound 62] is less than 20 nM
satisfied

Find out if reported IC50 for Cc1cc(-c2cn(-c3ccc(NS(=O)(=O)CCO)cc3N3CCC4(CC3)CC4)nn2)nc(N2CC3C(C2)C3(F)F)n1 (stereo not shown) [Compound 73] is less than 20 nM
not satisfied

Find out if reported IC50 for CS(=O)(=O)Nc1ccc(-c2ncc(-c3cccc(N4CCOCC4)n3)[nH]2)c(N2CCC3(CC2)CC3)c1 [Compound 10] is less than 20 nM
not satisfied

Find out if reported IC50 for CCS(=O)(=O)Nc1ccc(-n2cc(-c3cc(C)nc(N4CCC(F)(F)CC4)n3)nn2)c(N2CCC3(CC2)CC3)c1 [Compound 106] is less than 20 nM
not satisfied

Find out if reported IC50 for CCS(=O)(=O)Nc1ccc(-n2cc(-c3cccc(S(=O)(=O)NC(C)(C)C)c3)nn2)c(N2CCC3(CC2)CC3)c1 [Compound 116] is less than 20 nM
satisfied

---

Assign kon (on-rate from binding kinetics assay) to each entry below.
ASSAY TARGET: KIF18a-microtubule complex (Homo sapiens (Human), UniProt Q8NI77)
Sequence (Q8NI77 1-374, one chain of several): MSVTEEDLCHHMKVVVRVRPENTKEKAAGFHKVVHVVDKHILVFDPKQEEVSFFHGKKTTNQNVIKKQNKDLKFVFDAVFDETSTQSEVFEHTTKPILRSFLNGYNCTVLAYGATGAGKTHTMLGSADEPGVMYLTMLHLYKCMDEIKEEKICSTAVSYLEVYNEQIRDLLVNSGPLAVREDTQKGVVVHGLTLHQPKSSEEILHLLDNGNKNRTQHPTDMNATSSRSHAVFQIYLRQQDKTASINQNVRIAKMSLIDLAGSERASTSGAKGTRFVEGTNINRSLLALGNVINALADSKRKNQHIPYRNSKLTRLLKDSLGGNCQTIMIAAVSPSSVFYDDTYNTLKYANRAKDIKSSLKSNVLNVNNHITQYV
ASSAY COMMENT: Binding kinetics to KIF18a-microtubule complex (global progress curve analysis)
TEST SETTINGS: KIF18A 0.25 nM, up to 24 hr
Please make sure the unit comes right after the number.

What value of kon (on-rate from binding kinetics assay) has been recorded for this entry: Cc1cc(-c2cn(-c3ccc(NS(=O)(=O)CCO)cc3N3CCCCC3)nn2)nc(N2CCC(F)(F)CC2)n1 [Compound 67]
12200 M⁻¹ s⁻¹

What value of kon (on-rate from binding kinetics assay) has been recorded for this entry: CS(=O)(=O)Nc1ccc(-c2nnc(-c3cccc(N4CCC(F)(F)CC4)n3)[nH]2)c(N2CCC3(CC2)CC3)c1 [Compound 5]
16900 M⁻¹ s⁻¹

What value of kon (on-rate from binding kinetics assay) has been recorded for this entry: CS(=O)(=O)Nc1ccc(-n2cc(-c3cccc(N4CCC(F)(F)CC4)n3)nn2)c(N2CCCCC2)c1 [Compound 15]
21900 M⁻¹ s⁻¹

What value of kon (on-rate from binding kinetics assay) has been recorded for this entry: Cc1cc(-c2cn(-c3ccc(NS(=O)(=O)CCO)cc3N3CCCCC3)nn2)nc(N2CC(F)(F)C2)c1 [Compound 70]
2500 M⁻¹ s⁻¹

What value of kon (on-rate from binding kinetics assay) has been recorded for this entry: O=S(=O)(CCO)Nc1ccc(-n2cc(-c3csc(N4CCC(F)(F)CC4)n3)nn2)c(N2CCC3(CC2)CC3)c1 [Compound 69]
36100 M⁻¹ s⁻¹

---

Test system: JIMT-1 cells
ASSAY COMMENT: Cell viability of KIF18a-sensitive cell lines, JIMT-1 (Cell Titre-Glo, 7 days)
Format: cell-based
TEST SETTINGS: Homo sapiens, 168 h; JIMT-1, 7 days; read-out: JIMT-1 IC50
ASSAY METRIC: pIC50
Please report pIC50 as the negative decimal logarithm of the molar concentration, giving only the number.

What value of pIC50 has been recorded for this entry: CS(=O)(=O)Nc1ccc(-n2cc(-c3cccc(N4CCC(F)(F)CC4)n3)nn2)c(N2CCC3(CC2)CC3)c1
8.04

What value of pIC50 has been recorded for this entry: CS(=O)(=O)Nc1ccc(-c2nnc(-c3cccc(N4CCOCC4)n3)[nH]2)c(N2CCC3(CC2)CC3)c1
6.32

What value of pIC50 has been recorded for this entry: Cc1cc(N2CCC(F)(F)CC2)nc(-n2cc(-c3ccc(NS(=O)(=O)CCO)cc3N3CCC4(CC3)CC4)nn2)c1
7.17

What value of pIC50 has been recorded for this entry: Cc1cc(-c2cn(-c3ccc(NS(=O)(=O)CCO)cc3N3CCC4(CC3)CC4)nn2)nc(N2CCC(F)(F)CC2)c1
7.62

---

Tested on: NIH:OVCAR-3 cells
ASSAY COMMENT: Cell viability of KIF18a-sensitive cell lines, NIH:OVCAR-3 (Cell Titre-Glo, 7 days)
Type: cell-based
TEST SETTINGS: Homo sapiens, OVCAR-3, 168 h; NIH:OVCAR3, 7 days; read-out: NIH:OVCAR3 IC50
Assign IC50 to each entry below.
Your answer should be a plain number; it is taken to be in nM.

What value of IC50 has been recorded for this entry: CS(=O)(=O)Nc1ccc(-c2cn(-c3cccc(N4CCC(F)(F)CC4)c3)nn2)c(N2CCC3(CC2)CC3)c1
120

What value of IC50 has been recorded for this entry: CS(=O)(=O)Nc1ccc(-n2cc(-c3cccc(N4CCC(F)(F)CC4)n3)nn2)c(N2CCC3(CC2)CC3)c1
23

What value of IC50 has been recorded for this entry: O=S(=O)(CCO)Nc1ccc(-n2cc(-c3ccc(F)c(N4CCC(F)(F)CC4)n3)nn2)c(N2CCC3(CC2)CC3)c1
8.3

What value of IC50 has been recorded for this entry: O=S(=O)(Nc1ccc(-n2cc(-c3cccc(N4CCC(F)(F)CC4)n3)nn2)c(N2CCC3(CC2)CC3)c1)C1(CO)CC1
13

---

System: JIMT-1 cells
ASSAY COMMENT: Cell viability of KIF18a-sensitive cell lines, JIMT-1 (Cell Titre-Glo, 7 days)
Format: cell-based
TEST SETTINGS: Homo sapiens, 168 h; JIMT-1, 7 days; read-out: JIMT-1 IC50
Assign log10 of IC50 to each entry below.
Please keep in mind that the values are log10 of IC50 expressed in nM.

What value of log10 of IC50 has been recorded for this entry: CS(=O)(=O)Nc1ccc(-c2ncc(-c3cccc(N4CCC(F)(F)CC4)n3)[nH]2)c(N2CCC3(CC2)CC3)c1
2.00

What value of log10 of IC50 has been recorded for this entry: Cc1cc(-c2cn(-c3ccc(NS(=O)(=O)C4(CO)CC4)cc3N3CCCCC3)nn2)nc(N2CCC(F)(F)CC2)n1
1.54

What value of log10 of IC50 has been recorded for this entry: O=S(=O)(CCO)Nc1ccc(-n2cc(-c3ccc(F)c(N4CCC(F)(F)CC4)n3)nn2)c(N2CCC3(CC2)CC3)c1
0.89

What value of log10 of IC50 has been recorded for this entry: Cc1cc(-n2cc(-c3ccc(NS(=O)(=O)CCO)cc3N3CCC4(CC3)CC4)nn2)nc(N2CC3C(C2)C3(F)F)n1 (stereo not shown)
2.04

What value of log10 of IC50 has been recorded for this entry: O=S(=O)(CCO)Nc1ccc(-n2cc(-c3ccn(C4CCC(F)(F)CC4)n3)nn2)c(N2CCC3(CCC3)CC2)c1
1.46

What value of log10 of IC50 has been recorded for this entry: O=S(=O)(CCO)Nc1ccc(-n2cc(-c3cccc(N4CCC(F)(F)CC4)n3)nn2)c(N2CCC3(CC2)CC3)c1
0.84

What value of log10 of IC50 has been recorded for this entry: Cc1cc(-c2cn(-c3ccc(NS(=O)(=O)CCO)cc3N3CCC(C)CC3)nn2)nc(N2CCC(F)(F)CC2)n1
1.68

What value of log10 of IC50 has been recorded for this entry: CS(=O)(=O)Nc1ccc(-c2cn(-c3cccc(N4CCC(F)(F)CC4)n3)nn2)c(N2CCC3(CC2)CC3)c1
1.36

What value of log10 of IC50 has been recorded for this entry: O=S(=O)(CCO)Nc1ccc(-c2cn(-c3cccc(N4CCC(F)(F)CC4)n3)nn2)c(N2CCC3(CC2)CC3)c1
1.30

What value of log10 of IC50 has been recorded for this entry: CS(=O)(=O)Nc1ccc(-c2cn(-c3cccc(N4CCC(F)(F)CC4)c3)nn2)c(N2CCC3(CC2)CC3)c1
2.08
